Experiment: small-molecule microarray binders of probe aWnt5a, primary screen, biochemical, biotinylated probe, 635/667 nm fluorescence (AID 1113);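 further: score merges 667 nm fluorescence intensity with signal-to-noise per printed feature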
Particulars: higher = more signal
Assay Endpoint: composite z-score
# answer = number (no unit)

Prompt line: Look up composite z-score: "COCCOC(=O)N1C(=O)[C@@]2(c3cc(C#CC4(O)CCCCCC4)ccc31)[C@H](c1ccc(O)cc1)N1[C@H](c3ccccc3)[C@H](c3ccccc3)OC(=O)[C@H]1[C@@H]2C(=O)NC[C@H](O)c1ccccc1"
Response line: -0.0339

Prompt line: Now try "CC(C)C(=C=CC[C@H](O)c1cccc(OCCO)c1)C[C@H](O)c1cc(Cl)cc(Cl)c1O" .
Response line: -0.126

Prompt line: Could you do the same for "O=C1O[C@H](c2ccccc2)[C@H](c2ccccc2)N2[C@H]1[C@@H](C(=O)Nc1nc3ccccc3s1)[C@]1(C(=O)Nc3ccc(C#CC4(O)CCCCCC4)cc31)[C@H]2c1ccccc1OCCO" , please?
Response line: 0.0068

Prompt line: Note, next up: "O=C(CS)NCCCCCNC(=O)[C@@H]1C[C@@H]2C(=O)N3CCC[C@H]3C(=O)N2[C@@H]1c1cccc(OCCO)c1"
Response line: -0.073

Prompt line: Try the molecule "CN(C)C(=O)[C@]1(CCS(=O)(=O)c2ccccc2)N=C(c2ccc(OCCCO)cc2)O[C@@H]1c1ccccc1N=[N+]=[N-]"
Response line: 0.119

Prompt line: Cool, now "[N-]=[N+]=NCc1ccccc1C[C@@]1(C(=O)NCc2ccccc2)N=C(c2ccc(OCCCO)cc2)O[C@@H]1c1ccccc1N=[N+]=[N-]"
Response line: 0.0839
